# ASSAY SUMMARY: Cell Viability - SK-N-SH (AID 435);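 further: potency means the concentration at half of the fitted maximal effect; compound exposure lasted 40 h at 37 °C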
# REPORTED CONDITIONS: SK-N-SH neuroblastoma cell viability qHTS
Results filed as inconclusive are left out. Active and inactive are the calls of the source. The call rests on the fitted dose curve.
Entries annotated with measured Potency
QUANTITY: Potency

[
  {
    "MOLECULE": "C[C@]12CCC(=O)C=C1CC[C@@H]1[C@@H]2CC[C@]2(C)C(=O)CC[C@@H]12",
    "RESULT": "> 92 µM (inactive)"
  },
  {
    "MOLECULE": "CCC(C)(C)c1ccc(O)cc1",
    "RESULT": "> 92 µM (inactive)"
  },
  {
    "MOLECULE": "Nc1ccccc1",
    "RESULT": "> 92 µM (inactive)"
  },
  {
    "MOLECULE": "COc1cc(OC)c(OC)cc1C=O",
    "RESULT": "> 92 µM (inactive)"
  },
  {
    "MOLECULE": "CC(C)NC(C)C",
    "RESULT": "> 92 µM (inactive)"
  },
  {
    "MOLECULE": "COC(=O)C(c1ccccc1)C1CCCCN1 (stereo not given)",
    "RESULT": "> 92 µM (inactive)"
  },
  {
    "MOLECULE": "CC(C)c1cccc(C(C)C)c1O",
    "RESULT": "> 92 µM (inactive)"
  },
  {
    "MOLECULE": "C[C@]1(O)CC[C@H]2[C@@H]3CCC4=CC(=O)CC[C@]4(C)[C@@]3(F)[C@@H](O)C[C@@]21C",
    "RESULT": "> 92 µM (inactive)"
  },
  {
    "MOLECULE": "CCCC(C)(COC(N)=O)COC(N)=O",
    "RESULT": "> 92 µM (inactive)"
  },
  {
    "MOLECULE": "Oc1ccc(Cl)cc1",
    "RESULT": "> 92 µM (inactive)"
  }
]
